These data points were gathered from paper PMC12040169.

Assay: in vitro
Conditions: human, hela cells, % viability
Listing: viability at 28.5 h, 10 µM of selected compounds
endpoint.label: viability at 28.5 h, 10 µM (%)

{"columns": ["compound", "quantitative.result"],
 "data": [
  ["Clc1ccc(-c2cc(N3CCN(c4ccccn4)CC3)ncn2)cc1 [CBK091085]", 112],
  ["CCn1cc(NC(=S)Nc2sc3c(c2C(=O)OC)CCC(C)C3)c(C(N)=O)n1 (stereo not shown) [CBK267032]", 105],
  ["CSCCN1CCN(c2nccnc2OC2CCCCC2)CC1 [CBK082843T]", 108],
  ["COc1cc(-c2nccnc2NCc2ccco2)cc(OC)c1OC [CBK037072]", 111],
  ["C=CCSC1=N/C(=C\\c2ccc(C(=O)O)cc2)C(=O)S1 [CBK265057]", 95.7],
  ["Cc1nn(C)cc1CN1CCC(C(=O)NCCc2ccccc2)C1 (stereo not shown) [CBK281968]", 111],
  ["COC(=O)c1c(NC(=S)NC(=O)c2c(Br)c(C)nn2C)sc2c1CCCCCC2 [CBK267486]", 94.5],
  ["O=C(O)Cn1c2ccccc2c2cc([N+](=O)[O-])ccc21 [CBK261732]", 82.6],
  ["COc1cc(/C=N/n2cnnc2)ccc1OCCOc1ccc(C(C)(C)C)cc1 [CBK263762]", 88.8],
  ["Cc1ccc(-n2c(SCC(=O)Nc3sc4c(c3C#N)CCCC4)nnc2-c2ccccc2O)c(C)c1 [CBK268692]", 77.9],
  ["O=C1CC(c2ccccc2)CC(=O)N1c1ccc(N2CCOCC2)cc1 [CBK291191]", 108],
  ["O=C(Nc1ccc(N2CCNCC2)c2ccccc12)c1ccccc1 [CBK028412T]", 92.8],
  ["CCn1cc(CN2CCCCCC2c2cc(C)on2)c(C)n1 (stereo not shown) [CBK282140]", 80.7],
  ["CCOC(=O)N1CCN(S(=O)(=O)c2cc(C(=O)O)c(Cl)cc2Cl)CC1 [CBK296975]", 96.2],
  ["Cc1nc(-c2ccccc2)c(CC(=O)N(C)CCN(C)C)s1 [CBK282725]", 83.3],
  ["CC(C)NC(=O)C1(Cc2ccc(-c3ccccc3F)cc2)CCN(C(=O)C(C)C)CC1 [CBK285754]", 102],
  ["Cc1cc(C)c2c(CC(=O)N(C)CCN(C)C)coc2c1 [CBK282174]", 106],
  ["Cc1cc(N(C)CCOc2ccccc2F)nc(N)n1 [CBK305969]", 79.6],
  ["Cc1nn(Cc2ccc(F)cc2)c2sc(C(=O)NCc3ccc(S(N)(=O)=O)cc3)cc12 [CBK295181]", 87]
]}

###

Test: in vitro
Settings: human, hela cells, % viability

{"columns": ["molecule", "viability at 28.5 h, 10 µM (%)"],
 "data": [
  ["COc1cc(-c2nc3ncccc3cc2NC(=O)C(C)C)cc(OC)c1OC [CBK073661]", 96.6],
  ["COc1ccc(CNC(=O)c2cc(S(=O)(=O)N3CCCCC3)cs2)cc1 [CBK307590]", 85.9],
  ["Cc1nc(C)c(S(=O)(=O)Nc2ccccc2-c2nnnn2C(C)C)s1 [CBK305508]", 96.3],
  ["Cc1ccc2[nH]c(SCc3nc(O)c4ccccc4n3)nc2c1 [CBK269908]", 84],
  ["CCn1c(SC(C)C(N)=O)nc2ccc(Br)cc2c1=O (centres unmarked) [CBK306424]", 74.6],
  ["Clc1ccc(OCC2CCN(Cc3c[nH]cn3)CC2)cc1 [CBK281543]", 82.7],
  ["c1cnc(N2CCCC2)c(OC2CCOC2)n1 (centres unmarked) [CBK115891]", 91.2],
  ["COc1ccc2c(c1)c(=O)oc1c(CN3CCCC3)c(O)ccc12 [CBK266814]", 95.3],
  ["CC(C)CSc1nsc(N)n1 [CBK019938]", 97.1],
  ["c1ccc(CC2CCN(CCC(c3ccccc3)c3ccccc3)CC2)cc1 [CBK126389]", 102],
  ["Cc1ccc(CC(=O)N2CC(=O)Nc3ccccc32)cc1 [CBK287670]", 86.2],
  ["O=C(O)CC1C(=O)NCCN1Cc1ccc(F)c(F)c1 (centres unmarked) [CBK270008]", 85.3],
  ["COc1ccc(-c2csc(/C(C#N)=C/Nc3ccc(S(=O)(=O)Nc4nccs4)cc3)n2)cc1 [CBK262374]", 94.6],
  ["CC(C)N(C(=O)Cn1c(-c2ccco2)cc2cccnc21)C(C)C [CBK282682]", 99.4],
  ["CCN(CC)C(=O)N1CCN(Cc2cccc(OC)c2)C[C@@H]1C [CBK284268]", 78.8],
  ["CS(=O)(=O)Nc1nnc(SCC(=O)Nc2cccc([N+](=O)[O-])c2)s1 [CBK045536]", 102],
  ["CS(=O)(=O)c1ccc2nc(NC(=O)Cc3ccccc3)sc2c1 [CBK287339]", 89.8],
  ["CC(=O)NCC(=O)N(c1ccccc1)C1(C(=O)NC(c2ccccc2)c2ccccc2)CCCC1 [CBK100884]", 102],
  ["Cn1c(=O)cc(NCCCCCC(=O)O)[nH]c1=O [CBK286574]", 88.3],
  ["CCCn1cnnc1C(C)NC(=O)Nc1ccnn1CC1CCCCC1 (centres unmarked) [CBK306800]", 105]
]}
